# Experiment: NCI Yeast Anticancer Drug Screen. Data for the bub3 strain (AID 167)
# Measurement Setup: S. cerevisiae bub3 mutant strain, at 1.2 µM, hits give high values
Compounds without any hit were thinned out: in the full panel of roughly 79,000, 15% have a hit.
In this section, each of the molecules is paired with its reported growth inhibition.
Give the value, in units of %, as a plain number.

• CCN(CC)CC(=O)c1ccc2cc(Cl)c3ccccc3c2c1 = -4
• COc1cc(OC)c(CSCC(NC(=O)OCC2c3ccccc3-c3ccccc32)C(=O)O)c(OC)c1 (stereo not given) = 0
• CCOC(=O)CC1(C)/C(=N\Nc2ccc([N+](=O)[O-])cc2[N+](=O)[O-])CCC2C1CCC1(C)C(C(C)CCCC(C)C)CCC21 (stereo not given) = -1
• CC(C)NCCCNc1c2ccccc2nc2cccc([N+](=O)[O-])c12 = -11

Now consider the entry below.
[in] growth inhibition for `CCCCCCNCCCNc1c2cc(OC)ccc2nc2cccc([N+](=O)[O-])c12` ?
[out] -6
